Values compiled from ChEMBL document CHEMBL4017519.

system under test: Lysine-specific histone demethylase 1A (Homo sapiens)
procedure text: Inhibition of N-terminal truncated human LSD1 (151 to 852 residues) expressed in Escherichia coli after 30 mins using histone H3(1-21)K4(Me1) biotin peptide as substrate by TR-FRET assay
pIC50: −log10 of the molar value.
Classify by measured pIC50: Criterion met if it is equal to or exceeds 5, Criterion not met if it is smaller.

Identify whether the reported pIC50 of the following compound is 5 or greater: `COc1cc(N(CC(=O)N2CCC(N)CC2)S(=O)(=O)c2ccc3c(c2)CCN3C(C)=O)ccc1-n1nc(C)cc1C`
Criterion not met

# repeat for `Cc1ccc(S(=O)(=O)N(CC(=O)N[C@@H]2CN3CCC2CC3)c2ccc(C#N)cc2)cc1`
Criterion not met

Note, next up: `CC(=O)N1CCc2cc(S(=O)(=O)N(CC(=O)N3CCC(N)CC3)c3ccc(C#N)cc3)ccc21`
Criterion met

Check `Cc1ccc(S(=O)(=O)N(CC(=O)N2CC[C@H](N)C2)c2ccc(C#N)cc2)cc1` too.
Criterion not met

// same read-out, input: `Cc1ccc(S(=O)(=O)N(CC(=O)N2CC[C@@H](N)C2)c2ccc(C#N)cc2)cc1`
Criterion not met

Another compound to look at: `N#Cc1ccc(N(CC(=O)N2CCC(CN)CC2)Cc2cccc(C(N)=O)c2)cc1`
Criterion met

What about this compound? `N#Cc1ccc(N(CC(=O)N2CCC(N)CC2)Cc2ccccc2)cc1`
Criterion met

Let us now turn to `COc1cc(NS(=O)(=O)c2ccccc2)ccc1-n1nc(C)cc1C`
Criterion not met

Please give the result for `Cc1ccc(S(=O)(=O)N(CC(=O)N2CCC[C@H](N)C2)c2ccc(C#N)cc2)cc1` too.
Criterion not met

---

Entries with their measured Kd, system Lysine-specific histone demethylase 1A (Homo sapiens, UniProt O60341):
Respond numerically; units are µM and should not be typed.

Recorded Kd for `N#Cc1ccc(N(CC(=O)N2CCC(CN)CC2)Cc2ccc(Cl)cc2)cc1` , please?
0.29

Now the compound `Cc1ccc(S(=O)(=O)N(CC(=O)N2CCC(C)(N)CC2)c2ccc(C#N)cc2)cc1`
2.5

What do you get for `Cc1ccc(S(=O)(=O)N(CC(=O)N2CC[C@H](N)C2)c2ccc(C#N)cc2)cc1` ?
4.7

Thanks! And `Cc1ccc(CN(CC(=O)N2CCC(N)CC2)c2ccc(C#N)cc2)cc1` ?
0.43

Next record, please: `Cc1ccc(S(=O)(=O)N(CC(=O)N[C@@H]2CN3CCC2CC3)c2ccc(C#N)cc2)cc1`
3.5

---

system under test: Lysine-specific histone demethylase 1A (Homo sapiens, UniProt O60341)
procedure text: Inhibition of N-terminal truncated human LSD1 (151 to 852 residues) expressed in Escherichia coli after 30 mins using histone H3(1-21)K4(Me1) biotin peptide as substrate by TR-FRET assay
I'd appreciate it if you could supply pIC50 values for the items below.
Please keep in mind that pIC50 is minus log10 of the molar concentration; only the number is needed.

Consider the compound shown here: `CC(=O)N1CCc2cc(S(=O)(=O)N(CC(=O)N3CCC[C@@H](N)C3)c3ccc(C#N)cc3)ccc21` What is its recorded pIC50?
5.28

And for `COc1ccc(CN(CC(=O)N2CCC3(CC2)CNC3)c2ccc(C#N)cc2)cc1F` ?
7.08

Same read-out for `N#Cc1ccc(N(CC(=O)N2CCC(N)CC2)Cc2ccc(C#N)c(F)c2)cc1` ?
5.26

Now the compound `COc1ccc(CN(CC(=O)N2CCC(CN)CC2)c2ccc(C#N)cc2)cc1F`
6.68

Subsequent entry: `COc1cc(NS(=O)(=O)c2ccc3c(c2)cc(C)c(=O)n3C)ccc1-n1nc(C)cc1C`
6.37
